Reference source: ChEMBL document CHEMBL1153772

METHOD_SUMMARY: Permeability at 50 uM at pH 6.2 by PAMPA
ASSAY_METRIC: Papp at 50 µM (×10⁻⁶ cm/s)
One number for each entry, in ×10⁻⁶ cm/s.

Query CC(=O)N(C)CCc1cc(Br)c(OCCCNc2ncn(C)c3ncnc2-3)c(Br)c1 [APHROCALLISTIN] yields Papp at 50 µM of 201

====

METHOD_SUMMARY: Protein binding in mouse plasma at 1 uM
Format: ADME, cell-free
COND: read-out: PPB (converted)
ASSAY_METRIC: fraction unbound at 1 µM
Answers are plain numbers.

Reported fraction unbound at 1 µM of "CC(=O)N(C)CCc1cc(Br)c(OCCCNc2ncn(C)c3ncnc2-3)c(Br)c1" : 0.15

====

Species on record: Homo sapiens
METHOD_SUMMARY: Unbound fraction in human plasma at 10 uM
ASSAY_METRIC: fraction unbound at 10 µM

Recorded fraction unbound at 10 µM (compound "CC(=O)N(C)CCc1cc(Br)c(OCCCNc2ncn(C)c3ncnc2-3)c(Br)c1" ): 0.103

====

METHOD_SUMMARY: Protein binding in mouse plasma at 10 uM
Assay type: ADME, cell-free
COND: read-out: PPB (converted)
ASSAY_METRIC: fraction unbound at 10 µM
One number for each entry.

According to the records, this molecule "CC(=O)N(C)CCc1cc(Br)c(OCCCNc2ncn(C)c3ncnc2-3)c(Br)c1" displays fraction unbound at 10 µM of 0.309

====

METHOD_SUMMARY: Metabolic satbility in human liver microsomes assessed as compound remaining at 1 uM after 60 min in the presence of NADPH
Type: ADME, Microsome
COND: read-out: Stability
ASSAY_METRIC: remaining at 1 h, 1 µM (%)
Give bare numbers, in %.

The value of remaining at 1 h, 1 µM measured for the compound "CC(=O)N(C)CCc1cc(Br)c(OCCCNc2ncn(C)c3ncnc2-3)c(Br)c1" turned out to be 3.08

====

METHOD_SUMMARY: Stability in PBS at 40 uM after 3 hrs
Assay type: physicochemical
COND: read-out: Stability
ASSAY_METRIC: remaining at 3 h, 40 µM (%)
Numbers only, in %.

The reported remaining at 3 h, 40 µM of the compound "CC(=O)N(C)CCc1cc(Br)c(OCCCNc2ncn(C)c3ncnc2-3)c(Br)c1" was 99.7

====

Test system: NCI/ADR-RES
METHOD_SUMMARY: Cytotoxicity against human NCI/ADR-RES cells
Format: functional, cell-based
ASSAY_METRIC: IC50 (µM)
Give bare numbers, in µM.

Per the record, CC(=O)N(C)CCc1cc(Br)c(OCCCNc2ncn(C)c3ncnc2-3)c(Br)c1 [APHROCALLISTIN] has IC50 of 34.3

====

METHOD_SUMMARY: Solubility at pH 7.4
Format: physicochemical
COND: buffer
ASSAY_METRIC: solubility

Looking up "CC(=O)N(C)CCc1cc(Br)c(OCCCNc2ncn(C)c3ncnc2-3)c(Br)c1" , I found its solubility recorded as > 267 µg/mL

====

METHOD_SUMMARY: Solubility at pH 6.2
Format: physicochemical
COND: buffer
ASSAY_METRIC: solubility

Kindly note the recorded solubility for CC(=O)N(C)CCc1cc(Br)c(OCCCNc2ncn(C)c3ncnc2-3)c(Br)c1 [APHROCALLISTIN] , which is > 267 µg/mL
